Experiment: Therapeutic index, ratio of HD100 for hemolytic activity in human RBC to MIC against Staphylococcus aureus K147
Format: toxicity
Settings: human red blood cells, read-out: TI
Square brackets hold non-standard residues; d marks the D form. Peptide text beside a SMILES is read from it. Orn = NCCC[C@H](N)C(=O)O
Assign selectivity ratio to each entry below.
Answers are plain numbers.

CC(C)C[C@@H]1NC(=O)[C@H](CCCCN)NC(=O)[C@H](C(C)C)NC(=O)[C@@H]2CCCN2C(=O)[C@@H](Cc2ccc(O)cc2)NC(=O)[C@H](CC(C)C)NC(=O)[C@H](CCCCN)NC(=O)[C@H](C(C)C)NC(=O)[C@H](CCCCN)NC(=O)[C@H](CC(C)C)NC(=O)[C@@H]2CCCN2C(=O)[C@@H](Cc2ccc(O)cc2)NC(=O)[C@H](C(C)C)NC(=O)[C@@H](CCCCN)NC1=O (cyclo(KL[dK]V[dY]PLKVKL[dY]PV))	2

Could you now look at the following compound, please?
Req: # query: selectivity ratio of entry CC(C)C[C@@H]1NC(=O)[C@H](CCCN)NC(=O)[C@H](C(C)C)NC(=O)[C@@H]2CCCN2C(=O)[C@@H](Cc2ccccc2)NC(=O)[C@H](CC(C)C)NC(=O)[C@H](CCCN)NC(=O)[C@H](C(C)C)NC(=O)[C@@H]2CCCN2C(=O)[C@@H](Cc2ccccc2)NC1=O (cyclo(L[dF]PV[Orn]L[dF]PV[Orn]))
Resp: 8.3
